Test description: peripheral white blood cell counts (bone marrow toxicity) and survival in normal male ICR mice
Assay type: in vivo, mouse (ICR)
Setup conditions: 60 mg/kg ip single, day 3
Assay endpoint: Average count of WBC

INSERT INTO results (compound, value) VALUES
  ('CC(=O)OC[C@H]1OC(OC(C)=O)[C@H](NC(=O)N(CCCl)N=O)[C@@H](OC(C)=O)[C@@H]1OC(C)=O (stereo partly shown) [GCNU, reference compound]', '26.5±3.5 x 10^2 WBC/mm^3');

Consider CO[C@H]1O[C@H](CNC(=O)N(CCCl)N=O)[C@@H](O)[C@H](O)[C@H]1O . Its measured Average count of WBC is 41.1±4.1 x 10^2 WBC/mm^3

# Average count of WBC (compound: CO[C@H]1O[C@H](CO)[C@@H](O)[C@H](O)[C@H]1NC(=O)N(CCCl)N=O ) is 35.4±2.9 x 10^2 WBC/mm^3

Consider O=NN(CCCl)C(=O)NC1CCCCC1 [CCNU, reference compound] . Its measured Average count of WBC is 27.9±3.7 x 10^2 WBC/mm^3

----------
Average count of WBC for assorted compounds
Test description: peripheral white blood cell counts (bone marrow toxicity) and survival in normal male ICR mice
Type: in vivo, mouse (ICR)
Setup conditions: 40 mg/kg ip single, day 3

The examples below pair each entry with its known result.
INSERT INTO assay_data (compound, value) VALUES
  ('CO[C@H]1O[C@H](CNC(=O)N(CCCl)N=O)[C@@H](O)[C@H](O)[C@H]1O [Example 6MCαG]', '73.2±3.5 x 10^2 WBC/mm^3'),
  ('CO[C@H]1O[C@H](CO)[C@@H](O)[C@H](O)[C@H]1NC(=O)N(CCCl)N=O [Example 2MCαG]', '30.8±2.8 x 10^2 WBC/mm^3'),
  ('O=NN(CCCl)C(=O)NC1CCCCC1 [CCNU, reference compound]', '31.5±1.7 x 10^2 WBC/mm^3');

From here, focus on the item given below.
Average count of WBC measured on CC(=O)OC[C@H]1OC(OC(C)=O)[C@H](NC(=O)N(CCCl)N=O)[C@@H](OC(C)=O)[C@@H]1OC(C)=O (stereo partly shown) [GCNU, reference compound] = 33.2±3.3 x 10^2 WBC/mm^3

----------
Test description: acute toxicity (LD50) in mice
Format: in vivo, mouse (ICR)
Setup conditions: mouse, in vivo, ICR mice, 5 doses, qd
Assay endpoint: LD50 (mg/kg)
Report only the number, with the unit mg/kg understood.

The molecule listed as CO[C@H]1O[C@H](CO)[C@@H](O)[C@H](O)[C@H]1NC(=O)N(CCCl)N=O shows LD50 equal to 16

----------
Test description: peripheral white blood cell counts (bone marrow toxicity) and survival in normal male ICR mice
Format: in vivo, mouse (ICR)
Setup conditions: 60 mg/kg ip single
Method: Such peripheral white blood cell counts were performed as follows: Normal male ICR mice were used in groups of tens and the test compounds for treatment were made into their respective solutions. 2MCαG and 6MCαG were dissolved in physiological saline solutions, while CCNU and GCNU were suspended in 0.5% CMC aqueous solution and 50% PEG aqueous solution, respectively. […]
Listing of entries alongside the reported Death rate (death/used).

Worked examples, 3 compounds total:
INSERT INTO assay_data (compound, assay_endpoint, value) VALUES
  ('CO[C@H]1O[C@H](CNC(=O)N(CCCl)N=O)[C@@H](O)[C@H](O)[C@H]1O', 'Death rate (death/used)', '0/10'),
  ('CC(=O)OC[C@H]1OC(OC(C)=O)[C@H](NC(=O)N(CCCl)N=O)[C@@H](OC(C)=O)[C@@H]1OC(C)=O (stereo partly shown) [GCNU, reference compound]', 'Death rate (death/used)', '10/10'),
  ('O=NN(CCCl)C(=O)NC1CCCCC1 [CCNU, reference compound]', 'Death rate (death/used)', '9/10');

Now let's try a different one.
Measured Death rate (death/used) of CO[C@H]1O[C@H](CO)[C@@H](O)[C@H](O)[C@H]1NC(=O)N(CCCl)N=O : 10/10

----------
Death rate (death/used) values by entry
Test description: peripheral white blood cell counts (bone marrow toxicity) and survival in normal male ICR mice
Type: in vivo, mouse (ICR)
Setup conditions: 40 mg/kg ip single

Please review the following examples before continuing.
INSERT INTO measurements (molecule, value) VALUES
  ('CO[C@H]1O[C@H](CO)[C@@H](O)[C@H](O)[C@H]1NC(=O)N(CCCl)N=O', '10/10'),
  ('CC(=O)OC[C@H]1OC(OC(C)=O)[C@H](NC(=O)N(CCCl)N=O)[C@@H](OC(C)=O)[C@@H]1OC(C)=O (stereo partly shown) [GCNU, reference compound]', '10/10'),
  ('CO[C@H]1O[C@H](CNC(=O)N(CCCl)N=O)[C@@H](O)[C@H](O)[C@H]1O', '0/10');

The record that follows has no Death rate (death/used) shown yet.
Recorded result, O=NN(CCCl)C(=O)NC1CCCCC1 [CCNU, reference compound] , Death rate (death/used): 1/10

----------
Test description: blood sugar level / diabetogenic activity
Type: in vivo, rat (male Wister)
Setup conditions: rat, in vivo
Assay endpoint: diabetogenic activity

INSERT INTO results (compound, value) VALUES
  ('CO[C@H]1O[C@H](CNC(=O)N(CCCl)N=O)[C@@H](O)[C@H](O)[C@H]1O [Example 6MCαG]', 'free from diabetogenic'),
  ('CO[C@H]1O[C@H](CO)[C@@H](O)[C@H](O)[C@H]1NC(=O)N(CCCl)N=O [Example 2MCαG]', 'free from diabetogenic');

----------
Test description: acute toxicity (LD50) in mice
Type: in vivo, mouse (ICR)
Setup conditions: mouse, in vivo, single administration
Assay endpoint: LD50 (mg/kg)
Could you give me the number in mg/kg? Just the number is fine.

Memo: CO[C@H]1O[C@H](CNC(=O)N(CCCl)N=O)[C@@H](O)[C@H](O)[C@H]1O , reported LD50: 91

----------
Test description: acute toxicity (LD50) in mice
Assay type: in vivo, mouse (ICR)
Setup conditions: mouse, in vivo, ICR mice, single dose
Assay endpoint: LD50 (mg/kg)
The reply should be a number in mg/kg, with the unit left off.

Kindly note the recorded LD50 for CO[C@H]1O[C@H](CO)[C@@H](O)[C@H](O)[C@H]1NC(=O)N(CCCl)N=O , which is 48
